# measurement target: Hmlalpha2 (UniProt P0CY09)
# Sequence: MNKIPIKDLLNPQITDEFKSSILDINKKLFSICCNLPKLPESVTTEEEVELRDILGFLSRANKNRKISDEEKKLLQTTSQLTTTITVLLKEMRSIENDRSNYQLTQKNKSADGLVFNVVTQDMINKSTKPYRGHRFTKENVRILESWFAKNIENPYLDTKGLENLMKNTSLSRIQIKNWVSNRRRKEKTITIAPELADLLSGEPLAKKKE
# test summary: PBM E-score (8-mer binding enrichment) (E-score (-0.5 to 0.5)); higher = stronger / more preferred TF binding
# stated conditions: protein concentration: 200 nM; construct: GST-full length
The full ranking holds about 33,000 sequences; the median of “E-score (-0.5 to 0.5)” is about -0.04, and the highest 2% start at about 0.36. Only a selection was taken, and the highest values are over-represented in it overall.
Decision: PBM E-score compared against 0.2; not below it gives T, below it gives F.

> print(dat)
    sequence  label
 1  GGCAGCCC      F
 2  ACTCTACC      F
 3  CGCATGTA      T
 4  GGCATGTA      T
 5  AGCGTTGG      F
 6  CGTCCTTC      F
 7  GTTAAAAA      T
 8  GAATGGTA      T
 9  GGAATACA      T
10  ACACGCCA      T
11  GCCTATGA      F
12  ACGGACAT      F
13  TTTCAAAA      F
14  GGTGGGGA      F
15  CGAATACG      T
16  TGTTAACA      T
17  GGAATAGA      F
18  GTTAAACA      T
19  CCGAATGC      F
20  AAATGTAA      T
21  GGCATGCA      F
22  ACTTAGAT      F
23  TCGCCTCA      F
24  GTTAAAAC      T
25  CCTAGGCG      F
26  CCTTAAAC      F
27  AGCATGTG      T
28  ACTACAAT      F
29  CCCATATC      F
30  TAAATACA      T
31  AGTGTTGC      F
32  AGAGGCCT      F
33  GTGTTTTA      T
34  TAATGTAA      T
35  AAGAACTG      F
36  AGTACAAT      T
37  CGAATACC      F
38  GGTTAAAA      T
39  AGATTTGC      F
40  GTGCATGA      F
41  CTGAATTC      F
42  ATGACTCG      F
43  CAATGTAA      T
44  ACGGCCCC      F
45  CTTAAACA      F
46  TGAATACA      T
47  AGTTTCGG      F
48  AGACGCCT      F
49  GAATGTCA      F
50  AAAATACA      T
51  GAAATACA      T
52  ACCCTTGC      F
53  CTTCTGCA      F
54  CGCATGTC      T
55  GCATAAGC      F
56  CGAATACA      T
57  ATTGGTAG      F
58  ACACGCCC      T
59  TAATGTCA      F
60  CTGTTTTC      F
61  AGGCATTC      F
62  GGAATACC      F
63  ATTACAAT      T
64  AGAATACA      T
65  AGAATACC      F
66  CCGTTGTC      F
67  ACAATACA      T
68  CTGGGGGA      F
69  CTGTTTAA      F
70  GGCATGGA      F
71  CATACCGG      F
72  CGCATGGA      F
73  GAAGCTCC      F
74  AATAAGCC      F
75  CGTTAACA      T
76  AATCTGTA      F
77  TGGATACA      F
78  AGTTAACA      T
79  ACACGCCG      T
80  CCGTTCCG      F
81  TGCTAACA      T
82  CCAATACA      T
